molecular target: recombinant human PD-L1 (Sino Biological Inc.) (human, UniProt Q9NZQ7 19-239); assay: affinity determination (dissociation constant), method not stated
Sequence (Q9NZQ7 19-239 limits assumed): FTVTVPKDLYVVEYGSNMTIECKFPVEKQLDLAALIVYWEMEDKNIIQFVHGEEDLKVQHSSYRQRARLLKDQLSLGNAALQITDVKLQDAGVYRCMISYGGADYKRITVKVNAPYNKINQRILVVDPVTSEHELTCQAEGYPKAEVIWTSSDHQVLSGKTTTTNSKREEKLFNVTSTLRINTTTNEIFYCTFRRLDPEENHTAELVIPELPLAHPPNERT
Recorded endpoint: log10 koff (log10 of the value in s⁻¹)
Units before log transform: s⁻¹; reported quantity: koff; transform: log10.

Binder	Quantitative result
humanized anti-human PD-L1 monoclonal antibody VLS10-VHS7 (antibody, human IgG1, kappa, V domains shown) VH: QVQLVQSGAEVKKPGSSVKVSCTASGFNIEDTYIHWVRQAPGQGLEWMGRIDPANGNTKYDPKFQGRVTITADTSTNTAYMELSSLRSEDTAVYYCGRGLGAWFAYWGQGTLVTVSS VL: DIQMTQSPSSLSASVGDRVTITCKASQDVHTAVAWIHQKPGKAPKLLIYSASNRYTGVPSRFSGSGSGTDFTFTISSLQPEDIATYYCQQHYITPLTFGQGTKLEIKR	-3.17
humanized anti-human PD-L1 monoclonal antibody VLS10-VHS3 (antibody, human IgG1, kappa, V domains shown) VH: QVQLVQSGAEVKKPGSSVKVSCTASGFNIEDTYIHWVRQAPGQGLEWMGRIDPANGNTKYDPKFQGRVTITADTSTSTAYMELSSLRSEDTAVYYCGRGLGAWFAYWGQGTLVTVSS VL: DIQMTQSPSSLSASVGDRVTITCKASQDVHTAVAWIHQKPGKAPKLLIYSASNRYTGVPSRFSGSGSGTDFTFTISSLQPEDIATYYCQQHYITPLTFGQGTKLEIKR	-2.92
humanized anti-human PD-L1 monoclonal antibody VLS9-VHS6 (antibody, human IgG1, kappa, V domains shown) VH: QVQLVQSGAEVKKPGSSVKVSCTASGFNIEDTYIHWVRQAPGQGLEWMGRIDPANGNTKYDPKFQGRATITADESTNTAYMELSSLRSEDTAVYYCGRGLGAWFAYWGQGTLVTVSS VL: DIQMTQSPSSLSASVGDRVTITCKASQDVHTAVAWYQQKPGKAPKLLIYSASNRYTGVPSRFSGSGSGTDFTFTISSLQPEDIATYYCQQHYITPLTFGQGTKLEIKR	-2.21

Please give the measured log10 koff for this binder: humanized anti-human PD-L1 monoclonal antibody VLS9-VHS7 (antibody, human IgG1, kappa, V domains shown) VH: QVQLVQSGAEVKKPGSSVKVSCTASGFNIEDTYIHWVRQAPGQGLEWMGRIDPANGNTKYDPKFQGRVTITADTSTNTAYMELSSLRSEDTAVYYCGRGLGAWFAYWGQGTLVTVSS VL: DIQMTQSPSSLSASVGDRVTITCKASQDVHTAVAWYQQKPGKAPKLLIYSASNRYTGVPSRFSGSGSGTDFTFTISSLQPEDIATYYCQQHYITPLTFGQGTKLEIKR
-2.24

What measured log10 koff goes with humanized anti-human PD-L1 monoclonal antibody VLS10-VHS2 (antibody, human IgG1, kappa, V domains shown) VH: QVQLVQSGAEVKKPGSSVKVSCTASGFNIEDTYIHWVRQAPGQGLEWMGRIDPANGNTKYDPKFQGRATITADESTSTAYMELSSLRSEDTAVYYCGRGLGAWFAYWGQGTLVTVSS VL: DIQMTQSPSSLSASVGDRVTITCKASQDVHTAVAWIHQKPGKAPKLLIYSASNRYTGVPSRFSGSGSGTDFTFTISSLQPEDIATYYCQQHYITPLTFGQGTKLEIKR ?
-2.49

Any idea what its log10 koff is? The binder is humanized anti-human PD-L1 monoclonal antibody VLS15-VHS13 (antibody, human IgG1, kappa, V domains shown) VH: EVQLVQSGAEVKKPGSSVKVSCKASGFNIEDTYIHWVRQAPGQGLEWIGRIDPANGNTKYDPKFQGRATITADESTNTAYMELSSLRSEDTAVYYCGRGLGAWFAYWGQGTLVTVSS VL: DIQMTQSPSSLSASVGDRVTITCKASQDVHTAVAWIQQKPGKSPKLLIYSASNRYTGVPSRFSGSGSGTDFTFTISSLQPEDIATYYCQQHYITPLTFGQGTKLEIKR
-3.12

Consider the binder chimeric anti-human PD-L1 monoclonal antibody (antibody, human IgG1, kappa, V domains shown, expressed in ExpiCHO cells; also called Chimeric mAb; Chimeric antibody) VH: EVQLQQSGAELVKPGASVKLSCTASGFNIEDTYIHWVMQRPEQGLEWIGRIDPANGNTKYDPKFQGKATITADTSSNTAYLQLSSLTSEDTAVYYCGRGLGAWFAYWGQGTLVTVSA VL: DIVMTQSHKVMSTSVGDRVTITCKASQDVHTAVAWIHQKPGQSPKLLIYSASNRYTGVPDRFTGSGSGTDFTFTISSVQAEDLAVYYCQQHYITPLTFGAGTTLELKR and give its measured log10 koff.
-3.27

Give the measured log10 koff of humanized anti-human PD-L1 monoclonal antibody VLS9-VHS1 (antibody, human IgG1, kappa, V domains shown) VH: QVQLVQSGAEVKKPGSSVKVSCTASGFNIEDTYIHWVRQAPGQGLEWMGRIDPANGNTKYDPKFQGRVTITADESTSTAYMELSSLRSEDTAVYYCGRGLGAWFAYWGQGTLVTVSS VL: DIQMTQSPSSLSASVGDRVTITCKASQDVHTAVAWYQQKPGKAPKLLIYSASNRYTGVPSRFSGSGSGTDFTFTISSLQPEDIATYYCQQHYITPLTFGQGTKLEIKR .
-2.22

Requested field: log10 koff. Item: humanized anti-human PD-L1 monoclonal antibody VLS9-VHS8 (antibody, human IgG1, kappa, V domains shown) VH: QVQLVQSGAEVKKPGSSVKVSCTASGFNIEDTYIHWVRQAPGQGLEWMGRIDPANGNTKYDPKFQGRATITADTSTNTAYMELSSLRSEDTAVYYCGRGLGAWFAYWGQGTLVTVSS VL: DIQMTQSPSSLSASVGDRVTITCKASQDVHTAVAWYQQKPGKAPKLLIYSASNRYTGVPSRFSGSGSGTDFTFTISSLQPEDIATYYCQQHYITPLTFGQGTKLEIKR
-2.27

Given the binder humanized anti-human PD-L1 monoclonal antibody VLS9-VHS2 (antibody, human IgG1, kappa, V domains shown) VH: QVQLVQSGAEVKKPGSSVKVSCTASGFNIEDTYIHWVRQAPGQGLEWMGRIDPANGNTKYDPKFQGRATITADESTSTAYMELSSLRSEDTAVYYCGRGLGAWFAYWGQGTLVTVSS VL: DIQMTQSPSSLSASVGDRVTITCKASQDVHTAVAWYQQKPGKAPKLLIYSASNRYTGVPSRFSGSGSGTDFTFTISSLQPEDIATYYCQQHYITPLTFGQGTKLEIKR , what is its reported log10 koff?
-2.22
